B1: Syntaxin-binding protein 4, residues 493 to 538; numbered along this chain, Q6ZWJ1 (parent)
chain: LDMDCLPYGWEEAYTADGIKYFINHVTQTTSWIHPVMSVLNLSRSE

# Variants of: B1
# TEST_SUMMARY: abundance fitness (aPCA) (normalised: wild type 0, dead -1); higher = more abundant; growth selection in yeast, the domain comes from the species named
# EXPERIMENTAL_SETUP: Homo sapiens
READOUT_LABEL: abundance fitness

>>> readout_value("N41M")
-0.403
>>> readout_value("Y14R")
-0.389
>>> readout_value("Y14V")
-0.411
